- System: HepG2
- assay_summary: cell viability relative to DMSO; higher = less toxic
- reported_conditions: 72 h; 1 nM

molecule	cell viability
CS(=O)(=O)OCOS(C)(=O)=O [MDMS]	109%
CC[C@@H](c1ccc(F)c(F)c1)n1c(C(=O)OC)c(-c2ccno2)[nH]c1=S	115%
CC(C)=CCc1c(O)cc(O)c2c(=O)c(O)c(-c3ccc(C(F)(F)F)cc3)oc12 [SNG-1153]	97.3%
CC(C)(C)C(=O)OCOC(=O)[C@@H]1N2C(=O)[C@@H](/N=C/N3CCCCCC3)[C@H]2SC1(C)C [pivmecillinam]	94.7%
O=C(c1ccc(F)cc1)N1CCC[C@H](c2nc(-c3ccc(F)cc3)no2)C1	93.7%
C=CC(=O)Nc1cc(Nc2nccc(-c3c[nH]c4ccccc34)n2)c(OC)cc1N(C)CCN(C)C [AZ5104]	98.2%
O=C1CN(/N=C/c2ccc(-c3ccc([N+](=O)[O-])cc3)o2)C(=O)N1 [dantrolene]	102%
C[C@H]1C[C@H]2[C@@H]3CCC4=CC(=O)C=C[C@]4(C)[C@@]3(Cl)[C@@H](O)C[C@]2(C)[C@@]1(O)C(=O)CO [beclomethasone]	92.7%
NC(=O)CC[C@H](NC(=O)Cc1ccccc1)C(=O)O [phenylacetylglutamine]	93.9%
